Data origin: patent US20230052369A1

EC50 reference
biological target: T1, human 4-1BB, full-length, expressed on cells (human, UniProt Q07011 24-255); assay: flow cytometry, Jurkat-4-1BB
T1 construct: also called CD137; TNFRSF9
T1 sequence (Q07011 24-255): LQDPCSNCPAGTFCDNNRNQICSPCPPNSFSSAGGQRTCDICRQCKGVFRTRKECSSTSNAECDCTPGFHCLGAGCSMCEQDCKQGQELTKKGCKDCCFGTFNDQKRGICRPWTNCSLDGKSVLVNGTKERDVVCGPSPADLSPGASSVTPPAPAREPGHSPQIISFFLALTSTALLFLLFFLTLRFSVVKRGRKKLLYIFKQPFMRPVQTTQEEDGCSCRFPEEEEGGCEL
// units = nM; emit number, no label

v28690 (antibody, human IgG1, kappa, L234A L235A, V domains shown, also called humanized 1G1 H2L4) VH: EVQLVESGGGLVQPGGSLRLSCAASGFTFSEFGMHWVRQAPGKGLEWVAYISSGGSTIYYADSVKGRFTISRDNAKNSLYLQMNSLRAEDTAVYYCARDWVDYWGQGTLLTVSS VL: EIVMTQSPATLSLSPGERVTLSCKASENVGSYVSWYQQKPGQAPRLLIYGASNRYTGVPARFSGSGSGTDFTLTISSVEPEDLAVYYCGQSYSYPLTFGGGTKLELKR :: 0.376
v28688 (antibody, human IgG1, kappa, L234A L235A, V domains shown, also called humanized 1G1 H2L2) VH: EVQLVESGGGLVQPGGSLRLSCAASGFTFSEFGMHWVRQAPGKGLEWVAYISSGGSTIYYADSVKGRFTISRDNAKNSLYLQMNSLRAEDTAVYYCARDWVDYWGQGTLLTVSS VL: EIVLTQSPATLSLSPGERATLSCKASENVGSYVSWYQQKPGQAPRLLIYGASNRYTGVPARFSGSGSGTDFTLTISSLEPEDFAVYYCGQSYSYPLTFGGGTKVEIKR :: 0.36
v28691 (antibody, human IgG1, kappa, L234A L235A, V domains shown, also called humanized 1G1 H3L1) VH: EVQLVESGGGLVQPGGSLRLSCAASGFTFSEFGMHWVRQAPGKGLEWVAYISSGGSTIYYADSVKGRFTISRDNAKNSLYLQMNSLRAEDTAMYYCARDWVDYWGQGTLLTVSS VL: EIVLTQSPATLSLSPGERATLSCKASENVGSYVSWYQQKPGQAPRLLIYGASNRYTGIPARFSGSGSGTDFTLTISSLEPEDFAVYYCGQSYSYPLTFGGGTKVEIKR :: 1.44
v28727 (antibody, human IgG1, kappa, L234A L235A, V domains shown, also called humanized 1C8 H8L1) VH: EVQLVESGGGLIQPGGSLRISCAVSGFSLTTYAISWVRQAPGKGLEWLGIIWPGGGTNYADSLKGRLTISKDNSKNTVYLQMNSLRTEDTAVYYCARGAGTWYFDVWGQGTLVTVSS VL: DIQMTQSPSSLSASVGDRVTITCSASQGISNYLNWYQQKPGKAPKLLIYYTSSLHSGVPSRFSGSGSGTDFTFTISSLQPEDIATYYCQQYSKFPWTFGQGTKVEIKR :: 24.2
v28700 (antibody, human IgG1, kappa, L234A L235A, V domains shown, also called humanized 5G8 H2L2) VH: QVQLQESGPGLVKPSETLSLTCTVSGFSLISYGVHWVRQPPGKGLEWLGVIWSGGSTDYNPSLKSRVTISKDTSKNQFSLKLSSVTAADTAVYYCARNPLTATVMDYWGQGTLVTVSS VL: DIQMTQSPSSLSASVGDRVTITCRASQNVGTNVAWYQQKPGKAPKALIYSASYRDSGVPSRFSGSGSGTDFTLTISSLQPEDFATYYCQQYNSYPLTFGGGTKVEIKR :: 56.4

[Q] Form field: reported EC50 of v28689 (antibody, human IgG1, kappa, L234A L235A, V domains shown, also called humanized 1G1 H2L3) VH: EVQLVESGGGLVQPGGSLRLSCAASGFTFSEFGMHWVRQAPGKGLEWVAYISSGGSTIYYADSVKGRFTISRDNAKNSLYLQMNSLRAEDTAVYYCARDWVDYWGQGTLLTVSS VL: EIVMTQSPATLSLSPGERVTLSCKASENVGSYVSWYQQKPGQAPRLLIYGASNRYTGVPARFSGSGSGTDFTLTISSVEPEDFAVYYCGQSYSYPLTFGGGTKLELKR
[A] 0.486

[Q] Form field: reported EC50 of v28712 (antibody, human IgG1, kappa, L234A L235A, V domains shown, also called humanized 5G8 H4L3) VH: QVQLQESGPGLVKPSETLSITCTVSGFSLISYGVHWVRQPPGKGLEWLGVIWSGGSTDYNPSLKSRVTISKDNSKNQVSFKLSSLTAADTAIYYCARNPLTATVMDYWGQGTLVTVSS VL: DIQMTQSPSSLSASVGDRVTVTCRASQNVGTNVAWYQQKPGKAPKALIYSASYRDSGVPSRFSGSGSGTDFTLTISSVQPEDFATYYCQQYNSYPLTFGGGTKLEIKR
[A] 3.56

[Q] Form field: reported EC50 of v28704 (antibody, human IgG1, kappa, L234A L235A, V domains shown, also called humanized 5G8 H3L2) VH: QVQLQESGPGLVKPSETLSITCTVSGFSLISYGVHWVRQPPGKGLEWLGVIWSGGSTDYNPSLKSRVTISKDTSKNQVSFKLSSLTAADTAIYYCARNPLTATVMDYWGQGTLVTVSS VL: DIQMTQSPSSLSASVGDRVTITCRASQNVGTNVAWYQQKPGKAPKALIYSASYRDSGVPSRFSGSGSGTDFTLTISSLQPEDFATYYCQQYNSYPLTFGGGTKVEIKR
[A] 3.46

[Q] Form field: reported EC50 of v28702 (antibody, human IgG1, kappa, L234A L235A, V domains shown, also called humanized 5G8 H2L4) VH: QVQLQESGPGLVKPSETLSLTCTVSGFSLISYGVHWVRQPPGKGLEWLGVIWSGGSTDYNPSLKSRVTISKDTSKNQFSLKLSSVTAADTAVYYCARNPLTATVMDYWGQGTLVTVSS VL: DIQMTQSPSSLSASVGDRVTVTCRASQNVGTNVAWYQQKPGKAPKALIYSASYRDSGVPSRFSGSGSGTDFTLTISSVQPEDLATYYCQQYNSYPLTFGGGTKLEIKR
[A] 55.6

[Q] Form field: reported EC50 of v20023 (antibody, human IgG1, kappa, L234A L235A, V domains shown, Mouse-human chimera; also called 1G1; 1G1 mouse-human parental chimera) VH: EVQLVESGGGLVKPGGSRKLSCAASGFTFSEFGMHWVRQAPDKGLKWVAYISSGGSTIYYADTVKGRFTISRDNAKNTLFLQMTSLRSEDTAMYYCARDWVDYWGQGTTLTVSS VL: NIVMTQSPKSMSMSVGERVTLSCKASENVGSYVSWYQQKPEKSPKLLIYGASNRYTGVPDRFTGSGSATDFTLTISSVQAEDLADYHCGQSYSYPLTFGAGTKLELKR
[A] 0.337
